B1: TPR t1 (parent)
chain: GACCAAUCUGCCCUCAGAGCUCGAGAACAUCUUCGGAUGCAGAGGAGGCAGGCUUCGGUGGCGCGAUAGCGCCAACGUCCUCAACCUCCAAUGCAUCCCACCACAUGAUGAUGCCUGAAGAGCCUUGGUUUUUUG

# Variants of: B1
# experimental.protocol: polymerase ribozyme fitness, log enrichment relative to wild type (log ratio); higher = more active; in vitro selection for triplet polymerase activity
# polymerase ribozyme fitness (log ratio) listing for each entry below
readout.label: polymerase ribozyme fitness (log ratio)

mutant.name	measurement
G60U C102U	-1.09
A43U U59A U134G	-1.56
U9A A16U A24C U33G G36A C115U	-7.16
C11U U92A	-2.13
G35U G61U	-5.28
A84G C88U U116G C124A	-0.458
A29G G44U	-2.04
U14C A75G	-1.81
G35U C73U U112C	-2.9
C15U G69C C73G C94A A111C	-6.09
C72U U92A A95U	-4.07
A46U U109A	-6.04
A5C A37C C70U G110U	-4.1
C34U G36U G61A C97G A119G	-3.91
U106C C123A	0.522
C12U G44U G110A	-2.1
C8U A16U A37U G52C C56G C79A G110U U126A	-4.2
G39A G51U U129G	-5.53
C11G A84U G122A	0.157
C82A C97G	-5.53
U14A A46C U112A A119G G122C	-0.328
C13G C40A G63C G117U U133G	-6.59
C8G G39U C70U U78A	-0.697

Reference source for all entries: the RNAGym collection of RNA variant scans (doi:10.1073/pnas.2313332121)
